target: cloned human m2 muscarinic receptor (Homo sapiens); construct: expressed in transfected cells; host or cells: CHO cells, stably transfected (membranes); experiment: Muscarinic binding activity: inhibition of 3H-QNB binding, m2 (and m2 selectivity); details: 3H-QNB binding, membranes of transfected CHO cells, 25° C., 90 minutes, pH 7.4; read-out: Ki, m2
metric: Ki (nM)
Quick note: give the figure in nM, leave out the unit.

# annotated cases, reported Ki shown
{"columns": ["compound", "units", "value"],
 "data": [
  ["N#CN(c1ccc(S(=O)(=O)C2CCCCC2)cc1)C1CCN(C2CCCCC2)CC1 [Example 2AK]", "nM", 18.8],
  ["COc1ccc([S+]([O-])c2ccc(N(C#N)C3CCN(C4CCCCC4)CC3)cc2)cc1 (stereo not shown) [Example 2E]", "nM", 9],
  ["CC(=O)Nc1ccc([S+]([O-])c2ccc(N(C#N)C3CCN(C4CCCCC4)CC3)cc2)cc1 (stereo not shown) [Example 2AM]", "nM", 13.7]
]}

Now look at this one.
Suppose we examine the compound N#CN(c1ccc(S(=O)(=O)c2ccc3c(c2)OCO3)cc1)C1CCN(C2CCCCC2)CC1 [Example 2AC] ; what Ki value has been reported?
0.44

* * *

biological target: cloned human m2 muscarinic receptor (Homo sapiens); construct: expressed in transfected cells; host or cells: CHO cells, stably transfected (membranes); assay: Muscarinic binding activity: inhibition of 3H-QNB binding, m2 (and m2 selectivity)
metric: pKi
Schema: pKi number; meaning minus log10 of the concentration expressed in molar units.

{"columns": ["compound", "value"],
 "data": [
  ["C=CCN(c1ccc(S(=O)(=O)c2ccc(OC)cc2)cc1)C1CCN(C2CCCCC2)CC1 [Example 2I]", 8.43]
]}

Attention now shifts to the item below.
Give pKi (cloned human m2 muscarinic receptor (Homo sapiens)) of the following compound: COc1ccc(S(=O)(=O)c2ccc(N(C)C3CCN(C4CCCCC4)CC3)cc2)cc1 [Example 2G]
7.82

* * *

// values below are reported m2 Selectivity Ratio (Ki,m1/Ki,m2)
target: cloned human m2 muscarinic receptor (Homo sapiens, UniProt P08172); construct: expressed in transfected cells; host or cells: CHO cells, stably transfected (membranes); test: Muscarinic binding activity: inhibition of 3H-QNB binding, m2 (and m2 selectivity); settings: Ki for m1 divided by Ki for m2; higher = greater m2 selectivity
Sequence (P08172 whole entry): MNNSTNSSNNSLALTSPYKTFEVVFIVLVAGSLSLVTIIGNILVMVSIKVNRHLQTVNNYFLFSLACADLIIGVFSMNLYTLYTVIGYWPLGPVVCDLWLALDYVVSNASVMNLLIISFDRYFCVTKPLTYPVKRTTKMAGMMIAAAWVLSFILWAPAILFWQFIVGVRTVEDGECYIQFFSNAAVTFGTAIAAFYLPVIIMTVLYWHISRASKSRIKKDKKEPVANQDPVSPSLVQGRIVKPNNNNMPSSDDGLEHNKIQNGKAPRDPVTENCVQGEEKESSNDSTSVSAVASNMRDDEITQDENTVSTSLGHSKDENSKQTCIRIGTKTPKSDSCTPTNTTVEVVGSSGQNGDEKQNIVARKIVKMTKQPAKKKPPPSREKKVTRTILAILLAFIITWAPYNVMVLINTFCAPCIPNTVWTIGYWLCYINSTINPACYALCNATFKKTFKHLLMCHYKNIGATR
The reply should be a number, written without any unit.

{"columns": ["compound", "tgt", "value"],
 "data": [
  ["C=CCN(c1ccc(S(=O)(=O)c2ccc(OC)cc2)cc1)C1CCN(C2CCCCC2)CC1", "cloned human m2 muscarinic receptor (Homo sapiens, UniProt P08172)", 12.7]
]}

Tell me reported m2 Selectivity Ratio (Ki,m1/Ki,m2) for `N#CN(c1ccc(S(=O)(=O)C2CCCCC2)cc1)C1CCN(C2CCCCC2)CC1` , tested with cloned human m2 muscarinic receptor (Homo sapiens, UniProt P08172).
17.2

Follow-up entry: COc1ccc([S+]([O-])c2ccc(N(C#N)C3CCN(C4CCCCC4)CC3)cc2)cc1 (stereo not drawn)
21.0

Param item: `COc1ccc(S(=O)(=O)c2ccc(N(C)C3CCN(C4CCCCC4)CC3)cc2)cc1`
18.8

Thanks! And CC(=O)Nc1ccc([S+]([O-])c2ccc(N(C#N)C3CCN(C4CCCCC4)CC3)cc2)cc1 (stereo not drawn) ?
15.5

Field entry: `N#CN(c1ccc(S(=O)(=O)c2ccc3c(c2)OCO3)cc1)C1CCN(C2CCCCC2)CC1`
22.7
